Cited source: ChEMBL document CHEMBL1148342

- System: KYSE-70 cell line
- experiment_summary: Cytotoxic activity against human KYSE-70 cell line at 20 uM expressed as percent growth value
- Format: functional
Mark each entry y if its Activity sits below 80, and n for all others.

N#C/C(=C\c1ccco1)c1nc2ccccc2[nH]1    y
COc1ccc(/C=C(\C#N)c2nc3ccccc3[nH]2)cc1    y
N#C/C(=C\c1cccs1)c1nc2ccccc2[nH]1    y
N#C/C(=C\c1ccc(C#N)cc1)c1nc2ccccc2[nH]1    n
N#C/C(=C\c1cccc([N+](=O)[O-])c1)c1nc2ccccc2[nH]1    y

q: Determine whether this compound shows Activity lower than 80 (ties excluded): N#C/C(=C\c1ccc([N+](=O)[O-])cc1)c1nc2ccccc2[nH]1
a: n

q: Item CN(C)c1ccc(/C=C(\C#N)c2nc3ccccc3[nH]2)cc1 : Activity beneath 80, strictly?
a: n

###

Exercise: for every item that follows, state its recorded pIC50.
- System: LCLC-103H cell line
- experiment_summary: Growth inhibition against human LCLC-103H cell lines
- Assay type: functional, cell-based
- condition_details: Homo sapiens, LCLC-103H
One number for each entry, as −log10 of the molar value.

Can you give me pIC50 for all of these, one by one?
1. Cc1n[nH]c(/C(C#N)=C/c2ccc([N+](=O)[O-])o2)n1
2. N#C/C(=C\c1ccc([N+](=O)[O-])o1)c1n[nH]c(-c2ccccc2)n1
3. N#C/C(=C\c1ccc([N+](=O)[O-])o1)c1n[nH]c(Cc2ccccc2)n1
4. N#C/C(=C\c1cccs1)c1nc2ccccc2[nH]1
5. N#C/C(=C\c1ccc([N+](=O)[O-])s1)c1n[nH]c(-c2ccccc2)n1

a:
[6.46, 6.15, 6.54, 5.60, 6.27]

q: What measured pIC50 goes with Cc1ccc(/C=C(\C#N)c2nc3ccccc3[nH]2)s1 ?
a: 5.68

###

- Test system: LCLC-103H cell line
- experiment_summary: Growth inhibition against human LCLC-103H cell lines
- Format: functional, cell-based
- condition_details: Homo sapiens, LCLC-103H
pIC50: −log10 of the molar value.
Label satisfied when pIC50 is at or above 6; anything below gets not satisfied.

Example results:
N#C/C(=C\c1ccc([N+](=O)[O-])o1)c1nc2ccccc2[nH]1    satisfied
Cc1n[nH]c(/C(C#N)=C/c2ccc([N+](=O)[O-])s2)n1    satisfied
O=[N+]([O-])c1ccc(/C=C/c2nc3ccccc3[nH]2)s1    satisfied
CN(C)c1ccc(/C=C(\C#N)c2n[nH]c(Cc3ccccc3)n2)cc1    not satisfied
N#C/C(=C\c1ccc(C(F)(F)F)cc1)c1nc2ccccc2[nH]1    not satisfied

q: Evaluate N#C/C(=C\c1ccc([N+](=O)[O-])s1)c1n[nH]c(Cc2ccccc2)n1 : pIC50 at minimum 6?
a: satisfied

q: Does N#C/C(=C\c1ccc([N+](=O)[O-])s1)c1nc2ccccc2[nH]1 have a reported pIC50 of at least 6?
a: satisfied

q: Say whether C/C(=C\c1ccc([N+](=O)[O-])s1)c1nc2ccccc2[nH]1 shows pIC50 of 6 or more.
a: satisfied

q: Hi, just wondering whether N#C/C(=C\c1ccc(Cl)s1)c1nc2ccccc2[nH]1 shows pIC50 of 6 or higher.
a: not satisfied

###

- Test system: MCF7
- experiment_summary: Growth inhibition against human MCF-7 cell lines
- Format: functional, cell-based
- condition_details: mcf7
experimental_readout: IC50 (nM)
One number for each entry, in nM.

q: What measured IC50 is associated with CISPLATIN on MCF7?
a: 740

###

- System: MCF7
- experiment_summary: Growth inhibition against human MCF-7 cell lines
- Assay type: functional, cell-based
- condition_details: Homo sapiens, MCF7
Please respond with reported IC50 for every item in the list.
Numbers only, in nM.

COc1cc([C@@H]2c3cc4c(cc3[C@@H](O[C@@H]3O[C@@H]5CO[C@@H](C)O[C@H]5[C@H](O)[C@H]3O)[C@H]3COC(=O)[C@H]23)OCO4)cc(OC)c1O [ETOPOSIDE]    540
CN(C)c1ccc(/C=C(\C#N)c2n[nH]c(Cc3ccccc3)n2)cc1    1490

Parameters: items (list). Returns: IC50 for each item.
1. Cc1n[nH]c(/C(C#N)=C/c2ccc([N+](=O)[O-])s2)n1
2. N#C/C(=C\c1ccc([N+](=O)[O-])o1)c1n[nH]c(-c2ccccc2)n1
3. N#C/C(=C\c1ccc([N+](=O)[O-])s1)c1n[nH]c(Cc2ccccc2)n1
4. N#C/C(=C\c1ccc([N+](=O)[O-])s1)c1nc2ccccc2[nH]1
5. N#C/C(=C\c1cccs1)c1nc2ccccc2[nH]1

a:
[380, 1620, 420, 160, 11200]

Batch: IC50 for all items listed.
1. Cc1n[nH]c(/C(C#N)=C/c2ccc([N+](=O)[O-])o2)n1
2. N#C/C(=C\c1ccc([N+](=O)[O-])o1)c1nc2ccccc2[nH]1
3. N#C/C(=C\c1ccc([N+](=O)[O-])s1)c1n[nH]c(-c2ccccc2)n1
4. C/C(=C\c1ccc([N+](=O)[O-])s1)c1nc2ccccc2[nH]1
5. N#C/C(=C\c1ccc([N+](=O)[O-])o1)c1n[nH]c(Cc2ccccc2)n1
6. N#C/C(=C\c1ccc(C(F)(F)F)cc1)c1nc2ccccc2[nH]1
7. N#C/C(=C\c1cccc([N+](=O)[O-])c1)c1nc2ccccc2[nH]1

a:
1470
650
680
2970
610
9110
16400

###

Kindly supply the reported pIC50 values for the records listed here.
- Tested on: YAPC
- experiment_summary: Compound was tested for growth inhibition against human YAPC cell lines
- Assay type: functional, cell-based
- condition_details: Homo sapiens, YAPC
Give bare numbers, as −log10 of the molar value.

Take a look at these entries with their results.
CN(C)c1ccc(/C=C(\C#N)c2n[nH]c(Cc3ccccc3)n2)cc1    5.46
N#C/C(=C\c1ccc([N+](=O)[O-])s1)c1n[nH]c(Cc2ccccc2)n1    6.44
N#C/C(=C\c1ccc([N+](=O)[O-])s1)c1n[nH]c(-c2ccccc2)n1    6.49
COc1cc([C@@H]2c3cc4c(cc3[C@@H](O[C@@H]3O[C@@H]5CO[C@@H](C)O[C@H]5[C@H](O)[C@H]3O)[C@H]3COC(=O)[C@H]23)OCO4)cc(OC)c1O [ETOPOSIDE]    5.88
N#C/C(=C\c1ccc([N+](=O)[O-])o1)c1n[nH]c(Cc2ccccc2)n1    6.35
N#C/C(=C\c1ccc([N+](=O)[O-])o1)c1n[nH]c(-c2ccccc2)n1    5.85

Please supply pIC50 for each of the following items, keeping them in order.
1. N#C/C(=C\c1ccc([N+](=O)[O-])s1)c1nc2ccccc2[nH]1
2. Cc1n[nH]c(/C(C#N)=C/c2ccc([N+](=O)[O-])o2)n1
3. Cc1n[nH]c(/C(C#N)=C/c2ccc([N+](=O)[O-])s2)n1

a:
[6.80, 6.07, 6.39]

q: Using the record for N#C/C(=C\c1ccc([N+](=O)[O-])o1)c1nc2ccccc2[nH]1 , report its pIC50.
a: 6.24

###

- Tested on: KYSE-510 (human)
- experiment_summary: Growth inhibition against human KYSE-510 cell lines
- condition_details: kyse-510
experimental_readout: IC50 (nM)
Give bare numbers, in nM.

q: For KYSE-510 (human), provide IC50 of CISPLATIN please.
a: 880

###

- System: TERT-RPE1
- experiment_summary: Compound was tested for growth inhibition against human h-TERTRPE1 cell lines
- Assay type: functional, cell-based
- condition_details: Homo sapiens, RPE-1
experimental_readout: pIC50
Give bare numbers, as −log10 of the molar value.

N#C/C(=C\c1ccc([N+](=O)[O-])s1)c1n[nH]c(Cc2ccccc2)n1    6.29
N#C/C(=C\c1ccc([N+](=O)[O-])s1)c1nc2ccccc2[nH]1    6.41
COc1cc([C@@H]2c3cc4c(cc3[C@@H](O[C@@H]3O[C@@H]5CO[C@@H](C)O[C@H]5[C@H](O)[C@H]3O)[C@H]3COC(=O)[C@H]23)OCO4)cc(OC)c1O [ETOPOSIDE]    7.05

Kindly review the next compound as well.
q: Which pIC50 reading was recorded for the compound Cc1n[nH]c(/C(C#N)=C/c2ccc([N+](=O)[O-])s2)n1 ?
a: 6.16

###

- Tested on: KYSE-70 cell line
- experiment_summary: Cytotoxic activity against human KYSE-70 cell line at 20 uM expressed as percent growth value
- Type: functional
experimental_readout: Activity
Numbers only.

// known answers, use as guide
O=[N+]([O-])c1ccc(/C=C/c2nc3ccccc3[nH]2)s1    0.7
N#C/C(=C\c1ccc(OC(F)(F)F)cc1)c1nc2ccccc2[nH]1    96.7
C/C(=C\c1ccc([N+](=O)[O-])s1)c1nc2ccccc2[nH]1    2.4

q: GET /values?readout=Activity&system=KYSE-70 cell line&item= N#C/C(=C\c1ccc(C(F)(F)F)cc1)c1nc2ccccc2[nH]1
a: 69.7
